tested on: soybean (Glycine max Merr.), GLXMA; assay: Test Example 2 post-emergence (foliage treatment) herbicidal activity, GLXMA; type: in vivo; details: 63 g a.i./ha
Output yes for records whose growth controlling degree, GLXMA is lower than 50%, no for records at or above 50%.

Compound	Assayed Target	Label Value
C#CCOC(=O)Nc1c(OC)c(Cl)cc(F)c1-c1nn(C)c(OC(F)F)c1Cl [Compound 1-74]	soybean (Glycine max Merr.), GLXMA	no
COc1c(Cl)cc(F)c(-c2nn(C)c(OC(F)F)c2Cl)c1N(C(=O)OCCCl)C(=O)OCCCl [Compound 1-52]	soybean (Glycine max Merr.), GLXMA	yes
COc1c(Cl)cc(F)c(-c2nn(C)c(OC(F)F)c2Cl)c1NC(=O)C=Cc1ccc(F)cc1 [Compound 1-258]	soybean (Glycine max Merr.), GLXMA	yes
COc1c(Cl)cc(F)c(-c2nn(C)c(OC(F)F)c2Cl)c1NC(=O)C=Cc1cccc(C)c1 [Compound 1-254]	soybean (Glycine max Merr.), GLXMA	no
COc1c(Cl)cc(F)c(-c2nn(C)c(OC(F)F)c2Cl)c1NC(=O)OCc1ccccc1Cl [Compound 1-63]	soybean (Glycine max Merr.), GLXMA	no

Query: Please indicate whether the reported growth controlling degree, GLXMA of COc1ccc(OC(=O)N(C(=O)Oc2ccc(OC)cc2)c2c(OC)c(Cl)cc(F)c2-c2nn(C)c(OC(F)F)c2Cl)cc1 [Compound 1-65] is strictly below 50%.
Result: yes

Query: Does COc1c(Cl)cc(F)c(-c2nn(C)c(OC(F)F)c2Cl)c1NC(=O)c1ccc(C)cc1 [Compound 1-261] have growth controlling degree, GLXMA strictly under 50%?
Result: no

###

System: rice (Oryza sativa L.), ORYSA
Assay: Test Example 2 post-emergence (foliage treatment) herbicidal activity, ORYSA
Assay type: in vivo
Conditions: 63 g a.i./ha
Procedure: Upland field soil was put into a 1/170,000 ha pot, and seeds of various plants were sown. […] On the 20th to 23rd day after the application of the herbicide, the growth of the respective plants was visually observed, and the herbicidal effects were evaluated by growth controlling degrees (%) ranging from 0 (equivalent to the untreated control) to 100 (complete kill), whereby the results shown in Table 5, were obtained. […]
Everything with growth controlling degree, ORYSA lower than 60% is N; everything else, including exactly 60%, is Y.

Query: Is the recorded value of growth controlling degree, ORYSA equal to or greater than 60% for this compound? Cn1nc(-c2c(F)cc(Cl)c(OC(F)F)c2NC(=O)C(F)(F)F)c(Cl)c1OC(F)F
Result: N

Query: Kindly determine if growth controlling degree, ORYSA recorded for COc1c(Cl)cc(F)c(-c2nn(C)c(OC(F)F)c2Cl)c1NC(=O)c1cccc(Cl)c1 is above or exactly 60%.
Result: Y

Query: Check the entry COc1c(Cl)cc(F)c(-c2nn(C)c(OC(F)F)c2Cl)c1NC(=O)C1CC1 : does growth controlling degree, ORYSA equal or exceed 60%?
Result: Y

Query: Could you tell me if the measured growth controlling degree, ORYSA of COc1c(Cl)cc(F)c(-c2nn(C)c(OC(F)F)c2Cl)c1NCCc1cccc(C)c1 reaches 60% or more?
Result: Y

Query: Answer whether growth controlling degree, ORYSA of COc1c(Cl)cc(F)c(-c2nn(C)c(OC(F)F)c2Cl)c1NC(=O)C(C)Oc1ccccc1 (stereo not shown) is greater than or equal to 60%.
Result: N

Query: Has COCC(=O)Nc1c(OC)c(Cl)cc(F)c1-c1nn(C)c(OC(F)F)c1Cl a recorded growth controlling degree, ORYSA greater than or equal to 60%?
Result: Y

Query: In plain terms: is recorded growth controlling degree, ORYSA at least 60% for COc1ccc(C(=O)Nc2c(OC)c(Cl)cc(F)c2-c2nn(C)c(OC(F)F)c2Cl)cc1 ?
Result: Y

Query: Can Cn1nc(-c2c(F)cc(Cl)c(OC(F)F)c2NCc2ccccc2)c(Cl)c1OC(F)F be said to have growth controlling degree, ORYSA at or above 60%?
Result: N

Query: Check the entry COc1c(Cl)cc(F)c(-c2nn(C)c(OC(F)F)c2Cl)c1NC=O : does growth controlling degree, ORYSA equal or exceed 60%?
Result: N

Query: Is growth controlling degree, ORYSA for COc1c(Cl)cc(F)c(-c2nn(C)c(OC(F)F)c2Cl)c1N(C(=O)OCCl)C(=O)OCCl at or above 60%?
Result: N

Query: Test whether the compound C#CCOC(=O)Nc1c(OC)c(Cl)cc(F)c1-c1nn(C)c(OC(F)F)c1Cl records growth controlling degree, ORYSA of 60% or higher.
Result: Y

Query: Tell me whether growth controlling degree, ORYSA is at least 60% here: COc1c(Cl)cc(F)c(-c2nn(C)c(OC(F)F)c2Cl)c1NC(=O)c1cccc(C(F)(F)F)c1
Result: N

Query: # bool: growth controlling degree, ORYSA of COC(=O)Nc1c(OC)c(Cl)cc(F)c1-c1nn(C)c(OC(F)F)c1Cl >= 60%
Result: Y

###

test system: prickly sida (Sida spinosa L.), SIDSP; assay: Test Example 2 post-emergence (foliage treatment) herbicidal activity, SIDSP; format: in vivo; conditions: 63 g a.i./ha
Property: growth controlling degree, SIDSP (%)
State the answer as a number, implicitly in %.

Guide cases for growth controlling degree, SIDSP, answers given:
Compound	growth controlling degree, SIDSP / %
COc1c(Cl)cc(F)c(-c2nn(C)c(OC(F)F)c2Cl)c1NC(=O)c1cccc(Cl)c1	100
COc1c(Cl)cc(F)c(-c2nn(C)c(OC(F)F)c2Cl)c1N(C=O)CC(=O)c1ccc(Cl)cc1	100
COc1c(Cl)cc(F)c(-c2nn(C)c(OC(F)F)c2Cl)c1NC(=O)c1cccc(Br)c1	70
COC(=O)Nc1c(OC)c(Cl)cc(F)c1-c1nn(C)c(OC(F)F)c1Cl	100
COc1c(Cl)cc(F)c(-c2nn(C)c(OC(F)F)c2Cl)c1NC(=O)c1ccc(C)cc1	100
COc1c(Cl)cc(F)c(-c2nn(C)c(OC(F)F)c2Cl)c1NC(=O)COc1ccccc1	100
COC(=O)CN(C=O)c1c(OC)c(Cl)cc(F)c1-c1nn(C)c(OC(F)F)c1Cl	90
C#CCNc1c(OC(F)F)c(Cl)cc(F)c1-c1nn(C)c(OC(F)F)c1Cl	100

Now, please, on to the next compound.
Query: Value lookup for growth controlling degree, SIDSP; key = COc1c(Cl)cc(F)c(-c2nn(C)c(OC(F)F)c2Cl)c1NC(=O)Oc1ccccc1
Result: 100

###

// reported growth controlling degree, SIDSP for each item listed
test system: prickly sida (Sida spinosa L.), SIDSP; experiment: Test Example 2 post-emergence (foliage treatment) herbicidal activity, SIDSP; format: in vivo; settings: 63 g a.i./ha
Report as a plain number; the unit % is understood.

Smiles Record	growth controlling degree, SIDSP, %
Cn1nc(-c2c(F)cc(Cl)c(OC(F)F)c2NC(=O)C(F)(F)F)c(Cl)c1OC(F)F	100
COc1ccc(OC(=O)Nc2c(OC)c(Cl)cc(F)c2-c2nn(C)c(OC(F)F)c2Cl)cc1	100

Query: What growth controlling degree, SIDSP appears in the records for this compound with prickly sida (Sida spinosa L.), SIDSP? COc1ccc(COC(=O)Nc2c(OC)c(Cl)cc(F)c2-c2nn(C)c(OC(F)F)c2Cl)cc1
Result: 100

Query: Field: growth controlling degree, SIDSP (prickly sida (Sida spinosa L.), SIDSP). Entry: COc1cccc(C(=O)Nc2c(OC)c(Cl)cc(F)c2-c2nn(C)c(OC(F)F)c2Cl)c1
Result: 90

Query: Form field - read-out: growth controlling degree, SIDSP; system: prickly sida (Sida spinosa L.), SIDSP; submitted item: COc1c(Cl)cc(F)c(-c2nn(C)c(OC(F)F)c2Cl)c1NC(=O)C=Cc1ccc(F)cc1
Result: 100

Query: Tell me reported growth controlling degree, SIDSP for COc1c(Cl)cc(F)c(-c2nn(C)c(OC(F)F)c2Cl)c1NC(=O)C=Cc1ccc(C)cc1 , tested with prickly sida (Sida spinosa L.), SIDSP.
Result: 100

Query: API: value(readout=growth controlling degree, SIDSP, system=prickly sida (Sida spinosa L.), SIDSP) for record COc1c(Cl)cc(F)c(-c2nn(C)c(OC(F)F)c2Cl)c1NC(=O)c1ccccc1C
Result: 100

Query: For prickly sida (Sida spinosa L.), SIDSP, provide growth controlling degree, SIDSP of Cn1nc(-c2c(F)cc(Cl)c(OC(F)F)c2N(C=O)Cc2ccccc2)c(Cl)c1OC(F)F please.
Result: 60

Query: Can you look up growth controlling degree, SIDSP on prickly sida (Sida spinosa L.), SIDSP for Cn1nc(-c2c(F)cc(Cl)c(OC(F)F)c2NCc2ccccc2)c(Cl)c1OC(F)F ?
Result: 100

Query: Lab note: need growth controlling degree, SIDSP for COc1c(Cl)cc(F)c(-c2nn(C)c(OC(F)F)c2Cl)c1NC(=O)c1ccc(F)cc1F on prickly sida (Sida spinosa L.), SIDSP, anyone have it?
Result: 100

Query: Test system prickly sida (Sida spinosa L.), SIDSP; read-out growth controlling degree, SIDSP; what value for COc1c(Cl)cc(F)c(-c2nn(C)c(OC(F)F)c2Cl)c1NC(=O)CC(C)(C)C ?
Result: 100

Query: # returns recorded growth controlling degree, SIDSP (system: prickly sida (Sida spinosa L.), SIDSP) for C#CCOC(=O)Nc1c(OC)c(Cl)cc(F)c1-c1nn(C)c(OC(F)F)c1Cl
Result: 100

FYI, the data here is from patent US20050245399A1.
